tested on: DeltatarO mutant; test: S. aureus survival, RN4220 and DeltatarO strains – OD600, teichoic acid synthesis inhibitors, primary screen (AID 463173); details: S. aureus RN4220 wild type/DeltatarO growth, OD600, 18 h, screened at 18.75 µg/mL (by protocol)
Hit rate of the full screen: of about 52,000 compounds, about 4,300 (8.3%) were called active. No stated cut-off is given here; in the data, active means survival mostly below about 52% (no sharp cut-off); inactive means mostly above about 56%. Many of the other results were omitted from the sample, so actives are more common in it than they were.
One label from this list, please: T for active, F for inactive

Examples from the recorded data:
CCOC(=O)N1CCC(NC(=O)c2ccc3c(c2)N(Cc2ccccc2)C(=O)c2ccccc2S3(=O)=O)CC1 ... F
CCOC(=O)c1cnc(NCc2ccc(OC)cc2OC)c2ccccc12 ... F

Could you kindly confirm the outcome this assay logged for COc1ccc(OC)c(CNc2ncnc3onc(-c4ccc(Cl)cc4)c23)c1 ? F

Could you kindly confirm the outcome this assay logged for CCNC(=S)N1CCC(NC(=O)c2ccccc2)CC1 ? F

Could you kindly confirm the outcome this assay logged for COc1ccc(OC)c(C2NC(=O)NC(C)=C2C(=O)Nc2cc(C)cc(C)c2)c1 (stereo not drawn) ? F

Could you kindly confirm the outcome this assay logged for COc1ccc(OC)c(CNC(=O)CN2N=C(c3ccc(Cl)cc3)CCC2=O)c1 ? F

Could you kindly confirm the outcome this assay logged for CCOC(=O)c1cc2oc(C)cc2n1CC(=O)N(C)C1CCCCC1 ? F

Could you kindly confirm the outcome this assay logged for CCOc1ccc(-c2cnc(NCc3ccc(OC)cc3OC)n2C)cc1 ? T

* * *

test system: DeltatarO mutant; assay: S. aureus survival, RN4220 and DeltatarO strains – OD600, teichoic acid synthesis inhibitors, primary screen (AID 463173); settings: S. aureus RN4220 wild type/DeltatarO growth, OD600, 18 h, active compounds read low, screened at 18.75 µg/mL (by protocol)
In all, about 52,000 compounds went through this assay and about 4,300 (8.3%) were called active. The full list was thinned out, with actives kept by preference.
propertyName: survival

# count of solved cases: 5
COc1cc(OC)c(NC(=O)C(C)n2nc(-c3ccc(C)c(C)c3)ccc2=O)cc1Cl (centres undefined) ... 64% (inactive)
CCOc1ccccc1NC(=O)C1CCCN1S(=O)(=O)c1ccc2nc(-c3ccccc3)[nH]c2c1 (centres undefined) ... 50% (inactive)
CCc1ccc(OCC(=O)Nc2ccc3c(c2)c2ccccc2n3CC)c(Br)c1 ... 6% (active)
CCc1cccc(NC(=O)C2CCCN2S(=O)(=O)c2ccc3c(c2)n(C)c(=O)c(=O)n3C)c1 (centres undefined) ... 85% (inactive)
COC(=O)c1ccc(OCC2c3cc(OC)c(OC)cc3CCN2C(=O)COc2ccc(Cl)cc2)cc1 (centres undefined) ... 78% (inactive)

Give its survival value. Item: CCCCN(CCCC)C(=O)c1cc2c(=O)n3ccccc3nc2s1 39% (active)

Give its survival value. Item: COc1cc2c(cc1OC)C(COc1ccc(C(C)C)cc1)N(C(=O)COc1ccccc1)CC2 (centres undefined) 101% (inactive)

Give its survival value. Item: Cc1ccc2nc(/C(C#N)=C/c3cccc(Br)c3)[nH]c2c1 3% (active)

Give its survival value. Item: Cc1ccc(-c2ccc(=O)n(CC(=O)NC(C)c3ccccc3)n2)cc1 (centres undefined) 69% (inactive)

Give its survival value. Item: COc1ccccc1C1C=C(c2ccc(Cl)cc2)Nc2nc(-c3ccc(Cl)cc3)nn21 (centres undefined) 59% (inactive)

Give its survival value. Item: CCc1ccc(OCC(=O)Nc2ccc3c(c2)c2ccccc2n3CC)cc1 51% (inactive)

Give its survival value. Item: CCn1c2ccccc2c2cc(NC(=O)COc3cc(C)ccc3C)ccc21 29% (active)

Give its survival value. Item: COc1cc2c(cc1OC)C(COc1ccc(F)cc1)N(C(=O)c1ccc(S(=O)(=O)N3CCCC3)cc1)CC2 (centres undefined) 81% (inactive)

Give its survival value. Item: COc1cc2c(cc1OC)C(COc1ccccc1OC)N(C(=O)c1ccc(S(=O)(=O)N3CCCC3)cc1)CC2 (centres undefined) 32% (active)

* * *

system: DeltatarO mutant; experiment: S. aureus survival, RN4220 and DeltatarO strains – OD600, teichoic acid synthesis inhibitors, primary screen (AID 463173); conditions: S. aureus RN4220 wild type/DeltatarO growth, OD600, 18 h, active compounds read low, screened at 18.75 µg/mL (by protocol)
Out of some 52,000 compounds screened, about 4,300 (8.3%) were called active. The full list was thinned out, with actives kept by preference.
Let's look at some compounds and their measured survival.
Express it in %; write the number only.

# count of solved cases: 10
COc1ccc(NC(=O)C2=C(C)Nc3ncnn3C2c2ccccn2)cc1 (configuration not stated) ... 81
COc1ccc(Cn2c(CCC(=O)NCc3ccc(Cl)cc3)nc3cccnc32)cc1 ... 112
Nc1ccc(N2CCN(c3ncc(C(F)(F)F)cc3Cl)CC2)c(C(F)(F)F)c1 ... -5
COc1ccc(N2CCN(CNC(=O)c3ccccc3)CC2)cc1 ... 95
Cc1c(C(=O)Nc2ccc(F)cc2)oc2ccc(S(=O)(=O)N3CCCCCC3)cc12 ... 99
CCOC(=O)N1CCN(Cc2nc3cc(NC(=O)c4ccc([N+](=O)[O-])cc4)ccc3n2C(C)C)CC1 ... 75
O=C(c1ccc(Cl)cc1)N1CCC(c2nc3ccccc3o2)CC1 ... 79
COC(=O)Nc1ccc(S(=O)(=O)N2CCCCC2)cc1 ... 107
Cc1c(C(=O)Nc2ccc(F)c(F)c2)oc2ccc(S(=O)(=O)N3CCCCC3)cc12 ... 52
Cc1ccc(CCNC(=O)C2COc3ccccc3C2)cc1 (configuration not stated) ... 74

Param readout= survival; system= DeltatarO mutant; entry= Cc1cc(S(=O)(=O)n2ccnc2C(C)C)cc([N+](=O)[O-])c1C ; returns value. 57

Param readout= survival; system= DeltatarO mutant; entry= Cn1cc(-c2cc3n(n2)CCC(=O)N3CCCC(=O)Nc2ccc(F)cc2F)c2ccccc21 ; returns value. 128

* * *

system: DeltatarO mutant; assay: S. aureus survival, RN4220 and DeltatarO strains – OD600, teichoic acid synthesis inhibitors, primary screen (AID 463173); settings: S. aureus RN4220 wild type/DeltatarO growth, OD600, 18 h, screened at 18.75 µg/mL (by protocol)
The campaign covered roughly 52,000 compounds. About 4,300 (8.3%) were called active. Rule as the data show it: active = survival mostly below about 52% (no sharp cut-off); inactive = mostly above about 56%. This excerpt belongs to a sample that is enriched for actives.
One label from this list, please: YES = active, NO = inactive

COC(=O)c1ccc(CSc2nc3ccncc3n2Cc2ccc(F)cc2)cc1 ... NO
O=S(=O)(/C=C/c1ccccc1)N1CCOCC1 ... NO
O=C(Cc1cccs1)Nc1ccccc1 ... NO
COc1cccc(C(=O)Nc2cccc(C(=O)OCc3cc(=O)n4c(C)csc4n3)c2)c1 ... NO
Cc1ccc(Cl)cc1N1CCN(c2nc3ccc(C(=O)c4ccccc4)cc3n3cnnc23)CC1 ... YES
Cc1ccc(C)c(N2CCN(c3nc4ccc(C(=O)c5ccccc5)cc4n4cnnc34)CC2)c1 ... NO

Could you kindly confirm the outcome this assay logged for COC(=O)c1ccccc1NC(=O)Nc1cccc(OCc2cc(=O)n3cccc(C)c3n2)c1 ? NO

Could you kindly confirm the outcome this assay logged for CC(C)c1ccc(NC(=O)CSC2=Nc3ccccc3C3=NC(CCC(=O)NC4CCCCC4)C(=O)N23)cc1 (configuration not stated) ? NO

Could you kindly confirm the outcome this assay logged for CCCCC(c1nnnn1C(C)C)N1CCN(c2ccc(F)cc2)CC1 (configuration not stated) ? NO

Could you kindly confirm the outcome this assay logged for CCN(CC)C(=O)c1c(NC(=O)c2ccccc2F)sc2c1CCC(C(C)(C)C)C2 (configuration not stated) ? YES

Could you kindly confirm the outcome this assay logged for Cc1csc2nc(COC(=O)c3ccc(F)cc3)cc(=O)n12 ? NO

Could you kindly confirm the outcome this assay logged for COC(=O)c1ccc(Cn2c(SCc3cccc(C)c3)nc3ccncc32)cc1 ? NO

Could you kindly confirm the outcome this assay logged for Cc1ccccc1C(=O)Nc1sc2c(c1C(=O)NCc1ccco1)CCC(C(C)(C)C)C2 (configuration not stated) ? NO

Could you kindly confirm the outcome this assay logged for Cc1ccccc1C(=O)Nc1sc2c(c1C(=O)O)CCC(C(C)(C)C)C2 (configuration not stated) ? YES

Could you kindly confirm the outcome this assay logged for FC(F)(F)c1cccc(N2CCN(c3nc4ccccc4n4cnnc34)CC2)c1 ? YES

Could you kindly confirm the outcome this assay logged for Cc1ccc(NC2(c3ccccc3)C(=O)c3ccccc3C2=O)cc1F ? YES

Could you kindly confirm the outcome this assay logged for CCCOc1ccc(CNC(=O)c2cc3ccccn3n2)cc1 ? NO

Could you kindly confirm the outcome this assay logged for O=C(NCCc1ccccc1)c1cc(Sc2cccc(Cl)c2)nc2ccccc12 ? NO

Could you kindly confirm the outcome this assay logged for Cc1ccc(C(=O)Nc2sc3c(c2C(=O)NCc2ccco2)CCC(C(C)(C)C)C3)cc1 (configuration not stated) ? NO

Could you kindly confirm the outcome this assay logged for CC(C)(C)C1CCc2c(sc(NC(=O)c3ccc(Cl)cc3)c2C(=O)NCc2ccco2)C1 (configuration not stated) ? NO

Could you kindly confirm the outcome this assay logged for Cc1ccc(CSc2nc3ccncc3n2Cc2nc(-c3ccccc3C)oc2C)cc1 ? YES

Could you kindly confirm the outcome this assay logged for Cc1cccc(Cn2c(SCc3ccc(C(=O)NC4CCCC4)cc3)nc3ccncc32)c1 ? YES

Could you kindly confirm the outcome this assay logged for Cc1ccc(-c2nc(SCc3ccc(Br)cc3)n3[nH]c(=O)cc3n2)cc1 ? YES

Could you kindly confirm the outcome this assay logged for Cc1ccc(N2CCN(c3nc4ccc(C(=O)c5ccccc5)cc4n4cnnc34)CC2)c(C)c1 ? NO

Could you kindly confirm the outcome this assay logged for CCOc1ccc(C(=O)Nc2ccc(C(=O)OCc3cc(=O)n4c(C)csc4n3)cc2)cc1 ? NO
